Settings: in acetonitrile, 283.15 K
observation type: solubility (mole fraction)

>  <smiles record>
O=C(Cn1cnnn1)N[C@@H]1C(=O)N2C(C(=O)O)=C(CSc3nncs3)CS[C@H]12

>  <observation type>
solubility (mole fraction)

>  <measured result>
0.000137

$$$$
